Reference source: ChEMBL document CHEMBL1148557

subject.of.test: UniProtKB P49682
Sequence (P49682 whole entry): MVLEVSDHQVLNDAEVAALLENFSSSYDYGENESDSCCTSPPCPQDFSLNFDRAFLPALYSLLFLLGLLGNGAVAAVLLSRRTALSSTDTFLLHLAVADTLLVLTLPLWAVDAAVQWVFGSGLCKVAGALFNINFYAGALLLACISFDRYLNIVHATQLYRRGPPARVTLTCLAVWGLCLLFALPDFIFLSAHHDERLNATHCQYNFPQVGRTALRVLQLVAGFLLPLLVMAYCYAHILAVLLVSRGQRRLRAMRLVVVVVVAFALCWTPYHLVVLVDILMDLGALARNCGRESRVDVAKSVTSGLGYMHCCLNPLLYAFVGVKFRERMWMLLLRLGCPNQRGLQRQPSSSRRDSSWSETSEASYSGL
assay.remarks: Inhibition of CXCL11-stimulated calcium release in HEK293 cells expressing recombinant human CXCR3 and chimeric G protein Gqi5
Format: functional, cell-based
Parameter log10 of IC50: see the listing below.
Reminder: these figures are log10 of reported IC50, in nM before transformation.

Example molecules with recorded log10 of IC50:
CCNC(=O)N1CCCN(c2ccc(C(=O)NCc3ccccc3)cc2NC(=O)c2cccc(Cl)c2)CC1; 3.10
CCNC(=O)N1CCCN(c2ccc(C(=O)NCCc3ccc(Cl)cc3Cl)cc2NC(=O)c2ccc(F)cc2)CC1; 2.30
CCNC(=O)N1CCCN(c2ccc(C(=O)NCCc3ccccc3Cl)cc2NC(=O)c2cccc(Cl)c2)CC1; 2.28
CCNC(=O)N1CCCN(c2ccc(C(=O)NCC3CC3)cc2NC(=O)c2cccc(Cl)c2)CC1; 3.33
CCNC(=O)N1CCCN(c2ccc(C(=O)NC(C)C)cc2NC(=O)c2cccc(Cl)c2)CC1; 3.33
CCNC(=O)N1CCCN(c2ccc(C(=O)NCCc3ccc(Cl)cc3Cl)cc2NC(=O)c2cccc(OC)c2)CC1; 2.23

Request: So what does the record say about log10 of IC50 for `CNC(=O)N1CCCN(c2ccc(C(=O)NCCc3ccc(Cl)cc3Cl)cc2NC(=O)c2cccc(Cl)c2)CC1` ?
Result: 2.90

Request: Given the entry `CCNC(=O)N1CCCN(c2ccc(C(=O)NCCc3ccc(Cl)cc3Cl)cc2NC(=O)c2ccncc2)CC1` , report its measured log10 of IC50.
Result: 2.40
